Reference for the values: ChEMBL document CHEMBL5131534

# Protocol Summary: Drug concentration in mouse blood at 15 mg/kg, po measured at 24 hrs
# Format: ADME, organism-based
# Condition: read-out: Ct
Test Readout: concentration at 24 h (nM)

1. Cc1cc(-c2[nH]c3ccc(C4CCNCC4)cc3c2C(C)C)cc(C)n1: 22

---

# Protocol Summary: Cmax in mouse blood at 15 mg/kg, po
# Type: ADME, organism-based
# Set-up: dose 15 mg/kg, route po
Test Readout: Cmax (nM)

1) Cc1cc(-c2[nH]c3ccc(C4CCNCC4)cc3c2C(C)C)cc(C)n1: 255

---

# Protocol Summary: Plasma protein binding in rat assessed as free fraction
# Type: ADME, cell-free
Test Readout: fraction unbound

1) Cc1cc(-c2[nH]c3ccc(C4CCNCC4)cc3c2C(C)C)cc(C)n1: 0.11
